# target: T1, human ferroportin (SLC40A1) fused in frame with GFP, stably expressed in HEK293 cells (human, UniProt Q9NP59 1-571)
# T1 sequence (looked up): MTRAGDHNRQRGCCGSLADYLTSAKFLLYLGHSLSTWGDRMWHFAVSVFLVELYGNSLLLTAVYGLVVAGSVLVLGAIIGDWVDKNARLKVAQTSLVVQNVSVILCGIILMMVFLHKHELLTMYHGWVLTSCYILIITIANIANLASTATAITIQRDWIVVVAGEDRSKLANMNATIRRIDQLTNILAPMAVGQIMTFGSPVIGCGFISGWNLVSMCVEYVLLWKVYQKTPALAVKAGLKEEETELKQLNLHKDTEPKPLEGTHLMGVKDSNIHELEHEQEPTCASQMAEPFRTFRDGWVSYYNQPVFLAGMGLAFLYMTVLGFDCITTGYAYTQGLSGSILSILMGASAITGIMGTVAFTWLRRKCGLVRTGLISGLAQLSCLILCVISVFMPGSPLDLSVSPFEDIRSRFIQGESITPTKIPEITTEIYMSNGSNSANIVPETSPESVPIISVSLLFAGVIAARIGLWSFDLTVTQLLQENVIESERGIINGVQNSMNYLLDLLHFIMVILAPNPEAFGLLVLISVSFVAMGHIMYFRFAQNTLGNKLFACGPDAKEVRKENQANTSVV
# method_summary: cell-based or functional assay
Non-standard residues stand in square brackets, D forms with d. Groups on a side chain read outwards from the residue. *: point of attachment. Dip = N[C@H](C(=O)O)C(c1ccccc1)c1ccccc1; Palmitoyl = CCCCCCCCCCCCCCCC(=O)*; β3hF = N[C@H](CC(=O)O)Cc1ccccc1; Isovaleryl = CC(C)CC(=O)*; Ahx = NCCCCCC(=O)O
recorded_endpoint: FPN EC50 (nM)

* Isovaleryl-ETH[Dip]PI[dK][β3hF]K([Ahx-Palmitoyl])-NH2 (SMILES CCCCCCCCCCCCCCCC(=O)NCCCCCC(=O)NCCCC[C@H](NC(=O)C[C@H](Cc1ccccc1)NC(=O)[C@@H](CCCCN)NC(=O)[C@@H](NC(=O)[C@@H]1CCCN1C(=O)[C@@H](NC(=O)[C@H](Cc1c[nH]cn1)NC(=O)[C@@H](NC(=O)[C@H](CCC(=O)O)NC(=O)CC(C)C)[C@@H](C)O)C(c1ccccc1)c1ccccc1)[C@@H](C)CC)C(N)=O) [Isovaleric Acid-E-T-H-[Dpa]-P-I-[(D)Lys]-[bhPhe]-[Lys(Ahx_Palm)]-NH2] | 22.9
